Please go through the items and note down their pIC50.
- Tested On: canine TRPM8 (Canis lupus familiaris, UniProt Q1A7N1)
- Sequence (Q1A7N1 1-1104): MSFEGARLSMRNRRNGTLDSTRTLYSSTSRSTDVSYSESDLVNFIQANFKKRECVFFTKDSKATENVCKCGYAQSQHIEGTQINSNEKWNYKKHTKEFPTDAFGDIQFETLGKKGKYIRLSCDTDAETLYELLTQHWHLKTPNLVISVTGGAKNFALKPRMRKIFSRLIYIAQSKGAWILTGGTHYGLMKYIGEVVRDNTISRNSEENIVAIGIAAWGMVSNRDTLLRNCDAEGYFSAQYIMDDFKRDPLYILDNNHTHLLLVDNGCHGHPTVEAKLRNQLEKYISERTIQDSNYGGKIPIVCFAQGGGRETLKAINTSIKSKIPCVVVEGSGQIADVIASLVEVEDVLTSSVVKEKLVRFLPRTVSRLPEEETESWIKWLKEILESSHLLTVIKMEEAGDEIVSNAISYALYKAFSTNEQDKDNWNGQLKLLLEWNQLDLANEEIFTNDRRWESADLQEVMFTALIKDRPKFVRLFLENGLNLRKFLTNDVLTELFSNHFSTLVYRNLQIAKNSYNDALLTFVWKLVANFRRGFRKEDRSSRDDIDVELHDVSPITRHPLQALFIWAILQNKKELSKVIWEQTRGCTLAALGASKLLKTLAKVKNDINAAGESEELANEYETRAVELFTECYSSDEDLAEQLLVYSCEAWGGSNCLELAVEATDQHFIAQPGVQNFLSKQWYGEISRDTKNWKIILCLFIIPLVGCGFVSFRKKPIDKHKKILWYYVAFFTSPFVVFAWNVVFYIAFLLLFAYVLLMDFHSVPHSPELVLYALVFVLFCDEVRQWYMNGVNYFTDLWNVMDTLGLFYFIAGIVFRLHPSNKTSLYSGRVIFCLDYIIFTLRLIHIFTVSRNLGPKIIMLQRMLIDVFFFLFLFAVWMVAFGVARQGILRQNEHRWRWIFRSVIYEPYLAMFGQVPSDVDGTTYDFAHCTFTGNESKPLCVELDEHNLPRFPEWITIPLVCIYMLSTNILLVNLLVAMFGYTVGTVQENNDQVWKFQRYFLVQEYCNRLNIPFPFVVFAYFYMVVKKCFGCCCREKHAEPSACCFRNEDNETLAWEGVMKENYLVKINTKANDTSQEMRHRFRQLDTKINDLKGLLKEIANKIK
- Method Summary: In vitro canine TRPM8 functional assay (Ca2+-sensitive fluorescent dye, icilin activation)
- Format: cell-based
- Reported Conditions: HEK293 cells stably expressing canine TRPM8; icilin-induced Ca2+ response; eight-point concentration-response
Structures can show the parent of a compound that is named as a salt.
Note on pIC50: it is the negative log10 of concentration, concentration in mol/L.

Input CC(C)(C)c1cc(-c2nc3nc(-c4ccccc4F)ccc3[nH]2)on1 . Output pIC50: 7.06

Lab note: measured pIC50 of Cl.Cn1nc(C(C)(C)C)c(Cl)c1-c1nc2cc(-c3ccccc3F)ncc2[nH]1 [Compound 43, hydrochloride] was 7.66

So, CN(C)CCOc1nc(-c2ccccc2Cl)cc2nc(-c3c(Cl)c(C(C)(C)C)nn3C)[nH]c12 ? Its pIC50 was 7.62

Reported pIC50 ( COc1nc(-c2ccccc2C(F)(F)F)cc2[nH]c(-c3onc(C(C)(C)C)c3C#N)nc12 ) = 7.34

What the record says about Cn1nc(C(C)(C)C)c(C#N)c1-c1nc2cc(-c3ccccc3C(F)(F)F)nc(OCC(F)(F)F)c2[nH]1 : pIC50 is 8.74

// sample Cn1nc(C(C)(C)C)c(Cl)c1-c1nc2cc(-c3ccccc3Cl)nc(OCCO)c2[nH]1 , its pIC50 was 8.70

Reported pIC50 for Cn1nc(C(C)(C)C)c(Cl)c1-c1nc2cc(-c3ccccc3F)nc(OCC(F)(F)F)c2[nH]1 [Compound 91, sodium salt] was 8.42

In plain terms, Cn1nc(C(C)(C)C)cc1-c1nc2cc(-c3ccccc3C(F)(F)F)nc(Cl)c2[nH]1 [Compound 74, hydrochloride] has a documented pIC50 of 7.02

Sample CN1CCN(CCOc2nc(-c3ccccc3C(F)(F)F)cc3nc(-c4c(Cl)c(C(C)(C)C)nn4C)[nH]c23)CC1 ; pIC50 observed: 7.25

For Cn1nc(C(C)(C)C)c(Cl)c1-c1nc2cc(-c3ccccc3C(F)(F)F)nc(OCCN3CCOCC3)c2[nH]1 the compound record lists pIC50 as 8.19

// recorded pIC50 for Cn1nc(C(C)(C)C)c(Cl)c1-c1nc2cc(-c3ccccc3OC(F)(F)F)nc(OCC(F)(F)F)c2[nH]1 [Compound 90, sodium salt] : 9.14

Input Cn1nc(C(C)(C)C)cc1-c1nc2nc(-c3ccccc3C(F)(F)F)cc(Cl)c2[nH]1 [Compound 6, sodium salt] . Output pIC50: 7.16
